Experiment: 5' untranslated region of α-synuclein, MLPCN primary screen (AID 1813);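 note: H4 neuroglioblastoma cells stably carrying SNCA 5'UTR luciferase fusion; 0% = DMSO wells and 100% = positive control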
Conditions: alpha-synuclein 5'UTR reporter, inhibitor activity; hits give high values; tested at 7.5 µM
About 2,500 (0.83%) of roughly 300,000 compounds were called active. This is one part of a sample in which actives are shown more often than they occur.
Assignment: determine reported inhibition for the given molecules.
Value expressed in %; do not type the unit.

Ask | Given the molecule CC(C)CN(C(=O)c1ccc2c(c1)OCO2)C1CCS(=O)(=O)C1 (stereo unspecified) , write its reported inhibition.
Reply | -8.68

Ask | Given the molecule Cc1ccc2sc(N(CCN(C)C)C(=O)/C=C/c3cccs3)nc2c1C , write its reported inhibition.
Reply | -3.93

Ask | Given the molecule Cc1ccc(C(=O)Nc2nnc(C3=COCCO3)o2)cc1C , write its reported inhibition.
Reply | -10.3

Ask | Given the molecule COCCN1C(=O)C(=O)/C(=C(/O)c2ccc(S(=O)(=O)N3CCOCC3)cc2)C1c1ccc(OC)c(OC)c1 (stereo unspecified) , write its reported inhibition.
Reply | 0.0342

Ask | Given the molecule COc1cccc(/C=C2\C=C(c3ccc(C)cc3)OC2=O)c1OC(C)=O , write its reported inhibition.
Reply | -65.8

Ask | Given the molecule Cc1ccccc1NC(=O)CCNS(=O)(=O)c1ccc2[nH]c(=O)oc2c1 , write its reported inhibition.
Reply | 6.01

Ask | Given the molecule CCOC(=O)c1cnc(-n2nc(C)cc2C)nc1NNc1cc(C)nc(-c2ccccc2)n1 , write its reported inhibition.
Reply | 105

Ask | Given the molecule CC(C)n1c(CN2CCN(Cc3ccccc3)CC2)nc2ccccc21 , write its reported inhibition.
Reply | 9.23

Ask | Given the molecule CCOc1cc(N2CCOCC2)c(OCC)cc1NC(=O)COc1cccc2cccnc12 , write its reported inhibition.
Reply | 88.8

Ask | Given the molecule COc1cccc(/C=C/c2ccc3ccccc3n2)c1OC(C)=O , write its reported inhibition.
Reply | 83.1

Ask | Given the molecule CC(NC(=O)c1cccc2ccccc12)c1ccc2c(c1)CCCC2 (stereo unspecified) , write its reported inhibition.
Reply | 5.38

Ask | Given the molecule Cc1cc(C)n(-c2c(F)c(F)c(COC(=O)c3ccccc3)c(F)c2F)n1 , write its reported inhibition.
Reply | 6.91

Ask | Given the molecule O=C(N/N=C/c1ccc(OC(=O)c2ccccc2Cl)cc1)c1ccc(O)cc1 , write its reported inhibition.
Reply | -1.64

Ask | Given the molecule COC(=O)CN1C(=O)N/C(=C/c2ccc(OC)c(C)c2OC)C1=O , write its reported inhibition.
Reply | -8.7

Ask | Given the molecule CC(C)C[C@H](CO)Nc1nc(N(C)c2cccc(Cl)c2)c2ncn(C(C)C)c2n1 , write its reported inhibition.
Reply | 24.9

Ask | Given the molecule CCOc1cc(N2CCOCC2)c(OCC)cc1NC(=O)COc1cccc(Cl)c1 , write its reported inhibition.
Reply | 9.4

Ask | Given the molecule Cc1cc(Nc2ccc(Cl)cc2)nc(N2CCOCC2)n1 , write its reported inhibition.
Reply | -19

Ask | Given the molecule COc1ccccc1/C=N/Nc1nc(C)c(C(C)=O)s1 , write its reported inhibition.
Reply | -154

Ask | Given the molecule O=C(N/N=C/c1ccoc1)c1ccc(Cl)cc1Cl , write its reported inhibition.
Reply | -0.701

Ask | Given the molecule COc1ccc(Nc2cc(C)nc(-n3nc(C)cc3C)n2)cc1 , write its reported inhibition.
Reply | 92.8

Ask | Given the molecule CC(C)n1cnc2c(Nc3cccc(Cl)c3)nc(N(CCO)CCCO)nc21 , write its reported inhibition.
Reply | 64.7

Ask | Given the molecule Cc1cc(N/N=C\c2ccc(Br)cc2)nc(-n2nc(C)cc2C)n1 , write its reported inhibition.
Reply | 25

Ask | Given the molecule COc1ccc(CCNC(=O)CN(C)S(=O)(=O)c2ccc3nc(C)sc3c2)cc1OC , write its reported inhibition.
Reply | -0.864

Ask | Given the molecule CNc1ccc(SC#N)cc1 , write its reported inhibition.
Reply | 1.02

Ask | Given the molecule CCCCN(C)CCNC(=O)CSCc1ccc(C)cc1 , write its reported inhibition.
Reply | 0.318

Ask | Given the molecule Cc1ccc(C)c(S(=O)(=O)Nc2cc(C)on2)c1 , write its reported inhibition.
Reply | -13.8

Ask | Given the molecule Cc1oc(-c2ccccc2Cl)[n+]([O-])c1C , write its reported inhibition.
Reply | 34.1

Ask | Given the molecule Cc1nc2ccccn2c1C(=O)NN=C1CCN(C)CC1 , write its reported inhibition.
Reply | 18

Ask | Given the molecule CC1=NN(/C(=N\c2nnc(C)s2)Nc2ccccc2)[C@H](c2ccc(C)cc2)S1 , write its reported inhibition.
Reply | -19.5

Ask | Given the molecule COc1cccc(/C=N/Nc2ncc(C(F)(F)F)cc2Cl)c1O , write its reported inhibition.
Reply | 76.7

Ask | Given the molecule CCOC(=O)C1C(=O)NCC1c1ccccc1 (stereo unspecified) , write its reported inhibition.
Reply | -12.2

Ask | Given the molecule CCCN(CC(=O)Nc1ccc(OC)c(OC)c1)CC(=O)Nc1ccc(F)c(F)c1F , write its reported inhibition.
Reply | 3.66

Ask | Given the molecule O=C(NCC(=O)N(c1ccccc1)C(C(=O)NCC1CCCO1)c1ccccc1)c1cccs1 (stereo unspecified) , write its reported inhibition.
Reply | 15.4

Ask | Given the molecule CC(=O)N1C(C)c2ccccc2C(C)(C)CC12CCCCC2 (stereo unspecified) , write its reported inhibition.
Reply | -9.23

Ask | Given the molecule NS(=O)(=O)c1cccnc1Nc1cccc(Cl)c1 , write its reported inhibition.
Reply | -2.47

Ask | Given the molecule Cc1nc(N2CCCCC2)sc1C=O , write its reported inhibition.
Reply | 10.9

Ask | Given the molecule CCc1nc2ccccc2c(C(=O)OC2CCCCC2=O)c1C (stereo unspecified) , write its reported inhibition.
Reply | 8.85

Ask | Given the molecule NC(=O)C1CCN(Cc2nc3c(Br)cc(Br)cc3c(=O)[nH]2)CC1 , write its reported inhibition.
Reply | 31.8

Ask | Given the molecule COc1ccc2c(c1)cc1n2CCN=C1NN , write its reported inhibition.
Reply | -27.8

Ask | Given the molecule O=c1cc(-c2ccccc2)[nH]c2cc(F)ccc12 , write its reported inhibition.
Reply | 93.3

Ask | Given the molecule Brc1ccc2nc(N3CCCC3)sc2c1 , write its reported inhibition.
Reply | -105

Ask | Given the molecule c1c2c(cc3sc(N4CCCCC4)nc13)OCCO2 , write its reported inhibition.
Reply | 107

Ask | Given the molecule Cc1ccc(C(NC(=O)N2CCCC2)C(Cl)(Cl)Cl)cc1F (stereo unspecified) , write its reported inhibition.
Reply | 25.2

Ask | Given the molecule Cc1cc(Oc2ccc(Cl)cc2)nc(SCC(=O)c2ccccc2)n1 , write its reported inhibition.
Reply | 27.8

Ask | Given the molecule COCCCn1c(SCC(=O)NC2CCCC2)nnc1-c1ccccc1 , write its reported inhibition.
Reply | 4.11

Ask | Given the molecule CC(=O)N1c2ccc(S(=O)(=O)N3CCCC(C(=O)Nc4cccc(F)c4)C3)cc2CC1C (stereo unspecified) , write its reported inhibition.
Reply | 4.33

====

Assignment: determine reported inhibition for the given compounds.
Assay: 5' untranslated region of α-synuclein, MLPCN primary screen (AID 1813);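 note: H4 neuroglioblastoma cells stably carrying SNCA 5'UTR luciferase fusion; 0% = DMSO wells and 100% = positive control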
Settings: alpha-synuclein 5'UTR reporter, inhibitor activity; hits give high values; tested at 7.5 µM
The whole screen tested about 300,000 compounds, of which about 2,500 (0.83%) were called active. The sample as a whole holds a higher share of actives than the screen did.

Ask | Given the compound CC(=O)c1ccc(S(=O)(=O)N2CCN(C(=O)/C=C/c3ccc4ccccc4n3)CC2)cc1 , write its reported inhibition.
Reply | 62.4% (active)

Ask | Given the compound CSc1nc(-c2ccccc2)nc(C(Cl)Cl)n1 , write its reported inhibition.
Reply | 114% (active)

Ask | Given the compound Cc1ccc(Nc2nc(Cl)c(C=O)s2)cc1 , write its reported inhibition.
Reply | -26.4% (inactive)

Ask | Given the compound Cc1cc(NC(=O)CN2CCCC(C)C2)n(-c2nc3ccccc3s2)n1 (stereo not drawn) , write its reported inhibition.
Reply | 27.7% (inactive)

Ask | Given the compound Clc1ccc(-c2cc(-c3ccccn3)on2)c(Cl)c1 , write its reported inhibition.
Reply | 108% (active)

Ask | Given the compound Cc1ccc(C2CC(=O)NC(SCC(=O)OCc3ccccc3)=C2C#N)o1 (stereo not drawn) , write its reported inhibition.
Reply | -11.5% (inactive)

Ask | Given the compound COc1ccc(CN2[C@@H](CC(=O)O)c3cc(F)ccc3S2(=O)=O)cc1 , write its reported inhibition.
Reply | -3.17% (inactive)

Ask | Given the compound COc1ccc(C)cc1N(CC(=O)N1CCCC1)S(=O)(=O)c1ccccc1 , write its reported inhibition.
Reply | -6.96% (inactive)

Ask | Given the compound O=C1c2ccccc2C(=O)N1Cc1cc(-c2ccccc2Cl)no1 , write its reported inhibition.
Reply | 15.2% (inactive)

Ask | Given the compound COc1ccc(N2CCN(C(=O)CNC(=O)c3ccc(Br)o3)CC2)cc1 , write its reported inhibition.
Reply | 0.266% (inactive)

Ask | Given the compound COc1ccc(-c2cn3ccc(C)cc3n2)cc1 , write its reported inhibition.
Reply | 92.2% (active)

Ask | Given the compound CC(=O)c1ccc(S(=O)(=O)N2CCC3(CC2)OCCO3)cc1 , write its reported inhibition.
Reply | -7.06% (inactive)

Ask | Given the compound CCN(CC)S(=O)(=O)c1ccc(-c2cn3ccc(C)cc3n2)cc1 , write its reported inhibition.
Reply | -169% (inactive)

Ask | Given the compound Cc1cc(C(F)F)nn1CC(=O)NC1CCCCCC1 , write its reported inhibition.
Reply | -7.74% (inactive)

Ask | Given the compound O=C(CNCc1ccc(F)cc1)Nc1ccccc1-c1ccccc1 , write its reported inhibition.
Reply | 16.3% (inactive)

Ask | Given the compound CCOC(=O)CSC1=C(C#N)C(c2sccc2C)CC(=O)N1 (stereo not drawn) , write its reported inhibition.
Reply | 75% (active)

Ask | Given the compound CCCC[C@@H]1CN=C(N)N1CCc1cccc(F)c1 , write its reported inhibition.
Reply | -1.65% (inactive)

Ask | Given the compound COC(=O)c1cc(=O)n(-c2c(Cl)cc(C(F)(F)F)cc2Cl)[nH]1 , write its reported inhibition.
Reply | 29.3% (inactive)

Ask | Given the compound CCn1c(-c2cccnc2Cl)nc2cc(C)c(C)cc21 , write its reported inhibition.
Reply | 24.4% (inactive)

Ask | Given the compound Clc1ccc(-c2ncc3ccccn23)c(Cl)c1 , write its reported inhibition.
Reply | -17.4% (inactive)

Ask | Given the compound NC(=O)CCC(NS(=O)(=O)c1ccc(Cl)cc1)C(=O)NCc1ccccc1Cl (stereo not drawn) , write its reported inhibition.
Reply | -12.6% (inactive)

Ask | Given the compound CC(=O)Nc1ccc(NC(=O)CCCNC(=O)c2ccc(Cl)cc2)cc1 , write its reported inhibition.
Reply | 19.3% (inactive)

Ask | Given the compound CC(=O)c1ccc(S(=O)(=O)N2CCN(c3nc4c(C)c(C)ccc4cc3C#N)CC2)cc1 , write its reported inhibition.
Reply | 15.2% (inactive)

Values from PubChem BioAssay AID1813
